Recorded log2 fold change of degron read counts values for a group of sequences are listed next.
- target_or_test_system: T1, CRBN, Q96SW2;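 also: pooled lentiviral library of zinc finger degron-EGFP fusions in mCherry-positive Jurkat cells, FACS-sorted after compound exposure, with degron abundance counted by next-generation sequencing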
- T1 chain: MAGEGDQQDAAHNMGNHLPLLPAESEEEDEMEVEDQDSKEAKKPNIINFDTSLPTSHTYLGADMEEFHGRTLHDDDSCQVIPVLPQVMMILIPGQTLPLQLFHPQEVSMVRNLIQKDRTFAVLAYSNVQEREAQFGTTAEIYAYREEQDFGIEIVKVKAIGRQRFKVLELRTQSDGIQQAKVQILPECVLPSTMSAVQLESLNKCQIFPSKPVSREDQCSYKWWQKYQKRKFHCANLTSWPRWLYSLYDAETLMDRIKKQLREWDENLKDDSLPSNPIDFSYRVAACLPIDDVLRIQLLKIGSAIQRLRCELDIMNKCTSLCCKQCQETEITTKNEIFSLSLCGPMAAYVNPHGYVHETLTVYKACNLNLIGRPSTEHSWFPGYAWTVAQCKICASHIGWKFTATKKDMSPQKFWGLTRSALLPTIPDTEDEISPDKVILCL
- protocol_description: log2 fold change of degron read counts, EGFP-low vs EGFP+ sorted cells (limma voom), compound-induced degradation; higher = more compound-induced degradation of the degron-EGFP fusion; degrons are variants of IKZF1/3 zinc finger 2; compound dose not given here
- test_settings: Jurkat; 18 h; compound: thalidomide
Whole data set: some 8,300 sequences, median “log2 fold change of degron read counts, EGFP-low vs EGFP+ sorted cells (limma voom), compound-induced degradation” near -1.1, cut for the highest 2% near 3.2. The sample as a whole holds a higher share of the highest values than the screen did.
experimental_endpoint: log2 fold change of degron read counts

[[record]]
sequence_input = "FRCPVCGACFTQKGNLLRHIKL [46F_47R_49P_50V_52G_53A_54C_55F_67L_, Q9UKT9]"
value = 0.981

[[record]]
sequence_input = "FACPVCGACFTQKGNLLRHIKL [46F_47A_49P_50V_52G_53A_54C_55F_67L_, Q9UKT9]"
value = 0.646

[[record]]
sequence_input = "FLCEICGASFTQKGNLLRHIKL [46F_47L_49E_50I_52G_53A_54S_55F_67L_, Q9UKT9]"
value = 1.42

[[record]]
sequence_input = "FICEICGASFTQKGNLLRHIKL [46F_47I_49E_50I_52G_53A_54S_55F_67L_, Q9UKT9]"
value = 2.95

[[record]]
sequence_input = "FFCEICGHIFTQKGNLLRHIKL [46F_47F_49E_50I_52G_53H_54I_55F_67L_, Q9UKT9]"
value = -1.04

[[record]]
sequence_input = "FVCPVCGACFTQKGNLLRHIKL [46F_47V_49P_50V_52G_53A_54C_55F_67L_, Q9UKT9]"
value = 2.53

[[record]]
sequence_input = "FACEICGASFTQKGNLLRHIKL [46F_47A_49E_50I_52G_53A_54S_55F_67L_, Q9UKT9]"
value = 1.06

[[record]]
sequence_input = "FTCEICGASFTQKGNLLRHIKL [46F_47T_49E_50I_52G_53A_54S_55F_67L_, Q9UKT9]"
value = 3

[[record]]
sequence_input = "FCCPVCGACFTQKGNLLRHIKL [46F_47C_49P_50V_52G_53A_54C_55F_67L_, Q9UKT9]"
value = 2.06

[[record]]
sequence_input = "FNCEICGASFTQKGNLLRHIKL [46F_47N_49E_50I_52G_53A_54S_55F_67L_, Q9UKT9]"
value = 0.457

[[record]]
sequence_input = "FQCNVCGAYFTQKGNLLRHIKL [46F_47Q_49N_50V_52G_53A_54Y_55F_67L_, Q9UKT9]"
value = 1.41

[[record]]
sequence_input = "FACEQCGAFFTQKGNLLRHIKL [46F_47A_49E_50Q_52G_53A_54F_55F_67L_, Q9UKT9]"
value = -2.45

[[record]]
sequence_input = "FFCEICGHSFTQKGNLLRHIKL [46F_47F_49E_50I_52G_53H_54S_55F_67L_, Q9UKT9]"
value = -2.65

